Values from paper PMC9352680

- Assay System: T1, PUF4 RNA-binding domain (Saccharomyces cerevisiae, UniProt P25339 537-888)
- T1 sequence: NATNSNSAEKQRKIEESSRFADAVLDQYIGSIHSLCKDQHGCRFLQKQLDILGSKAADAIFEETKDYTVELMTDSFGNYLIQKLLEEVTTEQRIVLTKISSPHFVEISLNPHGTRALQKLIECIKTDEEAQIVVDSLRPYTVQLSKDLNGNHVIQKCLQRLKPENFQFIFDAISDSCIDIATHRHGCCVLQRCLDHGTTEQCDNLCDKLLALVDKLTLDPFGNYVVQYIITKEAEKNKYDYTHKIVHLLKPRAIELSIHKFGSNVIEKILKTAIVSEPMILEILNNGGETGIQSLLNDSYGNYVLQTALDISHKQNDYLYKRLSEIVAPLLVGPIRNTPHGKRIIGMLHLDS
- Method Summary: Mg; RNA-MaP; 20 mM Na-HEPES pH 7.4, 30 mM KOAc, 0.75 mM MgCl2, 0.1% Tween-20, 5% glycerol, 0.1 mg/mL BSA, 2 mM DTT; 25 C; 0.0125-409.6 nM protein
- Condition Description: tags: N-His6-TEV cleaved; C-SNAP kept, Cy3B-labelled; label: tethered on chip by stalled RNA polymerase
Outcome Measure: Kd (nM)
Dear colleague, please return just the value in nM, with no unit written.

Sample Ic_S4_P3E.1_K3.1_C3.1_H3.1_A3.1_F3.1_[A8T]_T3.1 (ssRNA) RNA: UUUGACAACUGAUCGUUCUUUCUUGUAUAUUUUCUUUCUCGAUCAGUUGUCUUU ; Kd observed: 3.03

Sample UCUCUUUGUACUACACUCUCUU (ssRNA) [Ic_S1_P5E.1_K5.1_C5.1_H5.1_A5.1_[T5C]_F5.1_[T8C]_[T9A]_[A10C]_T5.1] ; Kd observed: 455

Sample UCUCUUGCACACUUAUUAUCUCUCUU (ssRNA) [Id_ii_S1_P5E.4_K5.3_C5.2_[C-2G]_[T-1C]_H5.3_A5.1_F5.1_T5.2_[A12C]] ; Kd observed: 1160

Sample Ic_S2_P4E.1_K4.1_C4.1_H4.1_A4.1_[T5C]_[A6C]_[T7A]_F4.1_[T8C]_T4.1 (ssRNA) RNA: UUUGAUUAAUAUGAUAUCGUUCUUUCUUGUACCACAUUCUUUCUCGAUAUCAUAUUAAUCUUU ; Kd observed: 162

Sample ACAAACUGCAUAUUUACAAAC (ssRNA) [Ib_S3_P4E.1_K4.1_C4.1_H4.1_[T3C]_A4.1_F4.1_[A9T]_T4.1] ; Kd observed: 839

Sample UCUCUUUGUACUAGCUCUCUU (ssRNA) [Ic_S1_P4E.1_K4.1_C4.1_H4.1_A4.1_[T5C]_[A6T]_[T7A]_F4.1_[T8G]_[A9C]_T4.1] ; Kd observed: 643

Sample Ic_S4_P5E.1_K5.1_C5.1_H5.1_A5.1_F5.1_[T9A]_[A10C]_T5.1 (ssRNA) RNA: UUUGACAACUGAUCGUUCUUUCUUGUAUUAUACUUCUUUCUCGAUCAGUUGUCUUU ; Kd observed: 7.38

Sample Ic_S2_P4E.1_K4.1_C4.1_H4.1_A4.1_[T5G]_[A6C]_[T7C]_F4.1_[A9G]_T4.1 (ssRNA) RNA: UUUGAUUAAUAUGAUAUCGUUCUUUCUUGUAGCCUGUUCUUUCUCGAUAUCAUAUUAAUCUUU ; Kd observed: 300

Sample UCUCUUUGUACAAGCUCUCUU (ssRNA) [Ic_S1_P4E.1_K4.1_C4.1_H4.1_A4.1_[T5C]_[T7A]_F4.1_[T8G]_[A9C]_T4.1] ; Kd observed: 692

Sample Id_ii_S4_P3E.3_K3.2_C3.2_[C-2T]_[T-1C]_H3.2_A3.1_F3.1_T3.2_[A10T] (ssRNA) RNA: UUUGACAACUGAUCGUUCUUUCUUCUAUAUAUAUUUUCUUUCUCGAUCAGUUGUCUUU ; Kd observed: 38

Sample UCUCUUAGCUGUAUAUAUAUCUCUU (ssRNA) [Id_i_S1_P3E.5_K3.1_C3.3_[T-3A]_[C-2G]_[T-1C]_H3.1_A3.1_F3.1_T3.2] ; Kd observed: 7.66

Sample UCUCUUGCUAUAUAUUAUCUCUCUU (ssRNA) [Id_ii_S1_P4E.3_K4.2_C4.2_[C-2G]_[T-1C]_H4.2_A4.1_F4.1_T4.2_[G10T]_[T11C]] ; Kd observed: 38.5

Sample Ic_S4_P4E.1_K4.1_C4.1_H4.1_A4.1_[T5C]_[A6C]_[T7G]_F4.1_[T8C]_[A9T]_T4.1 (ssRNA) RNA: UUUGACAACUGAUCGUUCUUUCUUGUACCGCUUUCUUUCUCGAUCAGUUGUCUUU ; Kd observed: 150

Sample UCUCUUUGUAAACCUCUCUCUU (ssRNA) [Ic_S1_P5E.1_K5.1_C5.1_H5.1_A5.1_[T5A]_[T6A]_[A7C]_F5.1_[T8C]_[A10C]_T5.1] ; Kd observed: 548
